- Target Or Test System: recombinant HIV-1 protease (Human immunodeficiency virus type 1 group M subtype B, UniProt P04585)
- Construct: recombinant HIV-1 protease (final concentration 2.18 nM) purchased from Bachem Bioscience; purchased Bachem Bioscience
- Protocol Notes: Enzymatic fluorometric (FRET) assay for determining the inhibition constant (Ki) against HIV protease
- Type: biochemical
- Condition Notes: fluorometric FRET assay, recombinant HIV-1 protease, pH 4.7, 31° C.; read-out: Ki
pKi: −log10 of the molar value.

{"Sample Smiles": "Cc1cc(C)c(S(=O)(=O)N(CC(C)C)[C@@H](CCCCNC(=O)OCC2c3ccccc3-c3ccccc32)C(=O)O)c(C)c1", "pKi": "< 7.00"}
{"Sample Smiles": "COc1ccc(OC)c(C=CC(=O)NCCCC[C@@H](C(=O)O)N(CC(C)C)S(=O)(=O)c2ccc([N+](=O)[O-])cc2)c1", "pKi": "< 7.12"}
{"Sample Smiles": "CC(C)CN([C@@H](CCCCNC(=O)CCCc1ccccc1)C(=O)O)S(=O)(=O)c1ccc(N)cc1", "pKi": "< 6.52"}
{"Sample Smiles": "CC(C)CN([C@@H](CCCCNC(=O)C=Cc1ccc2c(c1)OCO2)C(=O)O)S(=O)(=O)c1ccc([N+](=O)[O-])cc1", "pKi": "< 6.52"}
